Could you please report measured Kd for the items listed next?
molecular target: HLA-B*44:02; test: IEDB peptide-MHC binding, purified MHC/competitive/radioactivity; filed as Kd, often an IC50 or EC50 that approximates it; bounds were set here for any values at or beyond the usual limits of such assays; details: source organism: SARS coronavirus Tor2
Numbers only, in nM.

// batch mode: one Kd value per listed entry
1. RELYLNSSNV
2. GEILLLEWLA
3. TEVMPVSMA
4. MEKLKALVA

[2160, 610, 6840, 568]

---

molecular target: HLA-B*57:01; test: IEDB peptide-MHC binding, purified MHC/competitive/radioactivity; filed as Kd, often an IC50 or EC50 that approximates it; bounds were set here for any values at or beyond the usual limits of such assays; conditions: source organism: Dengue virus 4 Philippines/H241/1956
QUANTITY_MEASURED: Kd (nM)
Give bare numbers, in nM.

>  <BIOSEQUENCE>
ESSSNPTIEE

>  <Kd (nM)>
2320

$$$$

Give measured Kd for every item shown.
1. GSRAIWYMW
2. RTWAYHGSY
3. SASEAVNDSR

1.72
15.8
1390

---

molecular target: HLA-B*40:01; assay: IEDB peptide-MHC binding, purified MHC/competitive/radioactivity; filed as Kd, often an IC50 or EC50 that approximates it; bounds were set here for any values at or beyond the usual limits of such assays; conditions: source organism: Lymphocytic choriomeningitis virus (strain Armstrong)
QUANTITY_MEASURED: Kd (µM)
Answers are plain numbers, in µM.

Lab note: need Kd with HLA-B*40:01 for entry SENDWFSCM , please look it up.
1.4

---

molecular target: HLA-B*27:05; assay: IEDB peptide-MHC binding, purified MHC/direct/fluorescence; filed as Kd, often an IC50 or EC50 that approximates it; bounds were set here for any values at or beyond the usual limits of such assays; details: source organism: Vibrio cholerae
Field: Kd. Provide a value for each of the sequences that follow.

>  <BIOSEQUENCE>
KGHLPLLDK

>  <SUBJECT_OF_TEST>
HLA-B*27:05

>  <MEAS_VALUE>
≥ 20 µM

$$$$

Checklist item: Kd tested on HLA-B*27:05, entry AADFPGIAR , value?
≥ 20 µM

---

target: HLA-A*23:01; experiment: IEDB peptide-MHC binding, purified MHC/direct/fluorescence; filed as Kd, often an IC50 or EC50 that approximates it; bounds were set here for any values at or beyond the usual limits of such assays; conditions: source organism: Vibrio vulnificus YJ016
QUANTITY_MEASURED: pKd
Answers are plain numbers, as −log10 of the molar value.

>  <BIOSEQUENCE>
GWPDNYCEW

>  <QUANTITY_MEASURED>
pKd

>  <MEAS_VALUE>
6.65

$$$$

Pending sequence:
Any idea what pKd came out for WHQARFEEL on HLA-A*23:01?
5.77

---

target: HLA-A*02:12; assay: IEDB peptide-MHC binding, purified MHC/competitive/fluorescence; filed as Kd, often an IC50 or EC50 that approximates it; bounds were set here for any values at or beyond the usual limits of such assays; conditions: source organism: Yersinia pestis Antiqua
QUANTITY_MEASURED: Kd

If you can, please state the reported Kd value of PLTNQRYRV .
≥ 20 µM
